# Study System: human ether-à-go-go-related gene (hERG) potassium channel (human);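 also: peak tail current of the secondary pulse compared with the same well before compound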
# Assay Method Text: primary screen, population patch clamp on CHO cells stably expressing hERG; higher = less effect of the substance
Among all 310,000 compounds or so, about 14,000 (4.5%) showed an effect of 50% or more. The effect is printed as a negative number. Many of the other results were omitted from the sample, so strong results are more common in it than they were.
Endpoint Label: hERG current change (%, negative = inhibition) at 10uM (%)
Record the value in %, omitting the unit from your answer.

Query: If you can, please state the reported hERG current change (%, negative = inhibition) at 10uM value of `Cc1cc(NC(=O)Cn2c(=O)n(CCCCC(=O)NC3CCN(Cc4ccccc4)CC3)c(=O)c3ccccc32)n[nH]1` .
Reply: 26.5

Query: If you can, please state the reported hERG current change (%, negative = inhibition) at 10uM value of `O=C(CCn1c(=O)c2ccccc2n(Cc2ccccc2)c1=O)NC1CCN(Cc2ccccc2)CC1` .
Reply: -42.5

Query: If you can, please state the reported hERG current change (%, negative = inhibition) at 10uM value of `O=C(CCCn1c(=O)c2ccccc2n(Cc2cccc(F)c2)c1=O)NC1CCN(Cc2ccccc2)CC1` .
Reply: -68.6

Query: If you can, please state the reported hERG current change (%, negative = inhibition) at 10uM value of `COc1ccccc1C(=O)N/C(=C/c1ccc(Br)cc1)C(=O)NCC(=O)O` .
Reply: -8.44

Query: If you can, please state the reported hERG current change (%, negative = inhibition) at 10uM value of `CCn1cc(/C=C(\NC(=O)c2ccccc2F)C(=O)NCCCn2ccnc2)c2ccccc21` .
Reply: -69

Query: If you can, please state the reported hERG current change (%, negative = inhibition) at 10uM value of `CCn1cc(/C=C(\NC(=O)c2ccccc2OC)C(=O)NCCCn2ccnc2)c2ccccc21` .
Reply: -19.2

Query: If you can, please state the reported hERG current change (%, negative = inhibition) at 10uM value of `COc1ccccc1C(=O)N/C(=C/c1ccc(Br)cc1)C(=O)NCCCn1ccnc1` .
Reply: -87

Query: If you can, please state the reported hERG current change (%, negative = inhibition) at 10uM value of `Cn1cc(/C=C(\NC(=O)c2ccccc2Cl)C(=O)NCCCn2ccnc2)c2ccccc21` .
Reply: 8.3

Query: If you can, please state the reported hERG current change (%, negative = inhibition) at 10uM value of `O=C(CCCCn1c(=O)c2ccccc2n(Cc2ccccc2)c1=O)NC1CCN(Cc2ccccc2)CC1` .
Reply: -67.9

Query: If you can, please state the reported hERG current change (%, negative = inhibition) at 10uM value of `C=CCNC(=O)/C(=C\c1ccc(Br)cc1)NC(=O)c1ccccc1OC` .
Reply: -51.8

Query: If you can, please state the reported hERG current change (%, negative = inhibition) at 10uM value of `COc1ccccc1C(=O)N/C(=C\c1ccc(Br)cc1)C(=O)NCCCO` .
Reply: -34.3

Query: If you can, please state the reported hERG current change (%, negative = inhibition) at 10uM value of `Cc1ccc(NC(=O)Cn2c(=O)n(CCC(=O)NC3CCN(Cc4ccccc4)CC3)c(=O)c3ccccc32)cc1` .
Reply: -1.53

Query: If you can, please state the reported hERG current change (%, negative = inhibition) at 10uM value of `O=C(NCCCn1ccnc1)/C(=C\c1cccnc1)NC(=O)c1ccccc1Br` .
Reply: 5.24

Query: If you can, please state the reported hERG current change (%, negative = inhibition) at 10uM value of `COC(=O)c1ccc2c(=O)[nH]c(CCl)nc2c1` .
Reply: 10.7

Query: If you can, please state the reported hERG current change (%, negative = inhibition) at 10uM value of `C=CCNC(=O)/C(=C/c1ccc(Br)cc1)NC(=O)c1ccccc1OC` .
Reply: -45.9

Query: If you can, please state the reported hERG current change (%, negative = inhibition) at 10uM value of `O=C(NCCCn1ccnc1)/C(=C\c1ccc(Br)cc1)NC(=O)c1ccccc1F` .
Reply: -74.3

Query: If you can, please state the reported hERG current change (%, negative = inhibition) at 10uM value of `O=C(NCCCn1ccnc1)/C(=C\c1cccnc1)NC(=O)c1ccccc1F` .
Reply: -17.7

Query: If you can, please state the reported hERG current change (%, negative = inhibition) at 10uM value of `O=C(CCCCn1c(=O)c2ccccc2n(Cc2ccccc2F)c1=O)NC1CCN(Cc2ccccc2)CC1` .
Reply: -9.04

* * *

# Study System: human ether-à-go-go-related gene (hERG) potassium channel (human, UniProt Q12809);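 also: peak tail current of the secondary pulse compared with the same well before compound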
# Sequence (Q12809 whole entry, looked up): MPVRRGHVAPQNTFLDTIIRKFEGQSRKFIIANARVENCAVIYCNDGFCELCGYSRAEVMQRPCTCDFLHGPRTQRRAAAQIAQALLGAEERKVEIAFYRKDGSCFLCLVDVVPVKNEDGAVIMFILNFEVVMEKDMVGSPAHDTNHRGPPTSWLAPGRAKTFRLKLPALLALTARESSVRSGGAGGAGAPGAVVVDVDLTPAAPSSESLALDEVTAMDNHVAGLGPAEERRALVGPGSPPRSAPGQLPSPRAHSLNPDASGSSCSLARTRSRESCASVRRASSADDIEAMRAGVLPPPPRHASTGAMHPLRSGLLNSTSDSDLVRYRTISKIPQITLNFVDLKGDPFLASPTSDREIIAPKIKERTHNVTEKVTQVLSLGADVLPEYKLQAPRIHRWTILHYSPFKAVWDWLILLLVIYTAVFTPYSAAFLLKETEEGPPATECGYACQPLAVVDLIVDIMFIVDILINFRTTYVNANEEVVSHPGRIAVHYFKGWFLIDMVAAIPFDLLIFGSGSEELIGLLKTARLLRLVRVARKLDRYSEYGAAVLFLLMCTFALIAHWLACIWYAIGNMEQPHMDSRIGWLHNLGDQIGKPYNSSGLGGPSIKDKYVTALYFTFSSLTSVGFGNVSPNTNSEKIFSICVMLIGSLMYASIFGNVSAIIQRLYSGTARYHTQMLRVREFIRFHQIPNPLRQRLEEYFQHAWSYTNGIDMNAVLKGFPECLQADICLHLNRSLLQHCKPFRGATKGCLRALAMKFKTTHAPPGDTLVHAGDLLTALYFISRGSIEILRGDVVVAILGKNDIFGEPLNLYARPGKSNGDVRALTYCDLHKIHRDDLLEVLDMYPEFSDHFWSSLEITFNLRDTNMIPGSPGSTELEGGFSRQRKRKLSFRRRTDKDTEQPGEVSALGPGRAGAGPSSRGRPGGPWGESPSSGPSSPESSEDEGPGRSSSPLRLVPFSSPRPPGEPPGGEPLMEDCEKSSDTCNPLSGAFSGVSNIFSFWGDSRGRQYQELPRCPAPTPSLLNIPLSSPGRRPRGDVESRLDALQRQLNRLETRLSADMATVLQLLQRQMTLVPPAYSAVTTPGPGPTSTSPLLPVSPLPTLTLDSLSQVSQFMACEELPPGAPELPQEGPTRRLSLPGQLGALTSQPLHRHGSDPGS
# Assay Method Text: primary screen, population patch clamp on CHO cells stably expressing hERG; higher = less effect of the substance
The whole screen tested about 310,000 compounds, of which about 14,000 (4.5%) showed an effect of 50% or more. Effects have a minus sign here. Shown is part of a subset that was picked to be rich in strong results.
Endpoint Label: hERG current change (%, negative = inhibition) at 10uM (%)
Record the value in %, omitting the unit from your answer.

Query: If you can, please state the reported hERG current change (%, negative = inhibition) at 10uM value of `CCOC(=O)c1ccc(NC(=O)c2nc[nH]c2C(=O)N2CCc3ccccc3C2)cc1` .
Reply: 0.122

Query: If you can, please state the reported hERG current change (%, negative = inhibition) at 10uM value of CCC(C)c1ccc(S(=O)(=O)N2CCN(C(C)CC(=O)O)CC2)cc1 (centres unmarked) .
Reply: 3.41

Query: If you can, please state the reported hERG current change (%, negative = inhibition) at 10uM value of `CC(=O)c1ccc2c(c1)OCCOCCOc1ccc(C(C)=O)cc1OCCOCCO2` .
Reply: -76.6

Query: If you can, please state the reported hERG current change (%, negative = inhibition) at 10uM value of `CC(=O)c1ccc2c(c1)OCCOCCOCCOCCO2` .
Reply: -49.3

Query: If you can, please state the reported hERG current change (%, negative = inhibition) at 10uM value of `O=C(N/C(=C\c1ccc2c(c1)OCO2)C(=O)N1CCOCC1)c1cccs1` .
Reply: -42.8

Query: If you can, please state the reported hERG current change (%, negative = inhibition) at 10uM value of `CC(=O)Nc1ccc(Sc2ncccc2C(=O)Nc2cc(Cl)cc(Cl)c2)cn1` .
Reply: 26.7

Query: If you can, please state the reported hERG current change (%, negative = inhibition) at 10uM value of `CCOC(=O)N1CCC(NC(=O)c2cccs2)CC1` .
Reply: 6.2

Query: If you can, please state the reported hERG current change (%, negative = inhibition) at 10uM value of `Nn1c(SCc2cccc(Cl)c2)nnc1-c1ccncc1` .
Reply: -2.64

Query: If you can, please state the reported hERG current change (%, negative = inhibition) at 10uM value of `Br.CCCN1CCc2cc(O)cc3c2[C@H]1Cc1ccc(O)c(O)c1-3.O` .
Reply: -57.8

Query: If you can, please state the reported hERG current change (%, negative = inhibition) at 10uM value of `CCOC(=O)N1CCN(C(=O)/C(=C/c2cccs2)NC(=O)c2cccs2)CC1` .
Reply: -45.7

Query: If you can, please state the reported hERG current change (%, negative = inhibition) at 10uM value of `CCOC(=O)N1CCN(C(=O)/C(=C\c2cccs2)NC(=O)c2cccs2)CC1` .
Reply: -71.8

Query: If you can, please state the reported hERG current change (%, negative = inhibition) at 10uM value of `Cn1c(CCNC(=O)c2ccco2)nc2cc(NS(=O)(=O)c3ccccc3)ccc21` .
Reply: -6.01

Query: If you can, please state the reported hERG current change (%, negative = inhibition) at 10uM value of `NC(=O)c1ccc2c(c1)OCCO2` .
Reply: 6.04

Query: If you can, please state the reported hERG current change (%, negative = inhibition) at 10uM value of N#CC(c1ccc(Cl)nn1)c1c(F)cccc1Cl (centres unmarked) .
Reply: 9.59

Query: If you can, please state the reported hERG current change (%, negative = inhibition) at 10uM value of Cc1cccc(CN2CCC(CNC(=O)C3CCCN(S(=O)(=O)c4cnc[nH]4)C3)CC2)c1 (centres unmarked) .
Reply: -1.13

Query: If you can, please state the reported hERG current change (%, negative = inhibition) at 10uM value of `Cc1ccc(S(=O)(=O)Nc2ccc3c(c2)nc(CCN2CCCCC2)n3C)cc1` .
Reply: -63.6

Query: If you can, please state the reported hERG current change (%, negative = inhibition) at 10uM value of `O=C(O)c1ccc2c(c1)OCCO2` .
Reply: 3.19

Query: If you can, please state the reported hERG current change (%, negative = inhibition) at 10uM value of `CC(=O)c1ccc2c(c1)OCO2` .
Reply: 16.1

Query: If you can, please state the reported hERG current change (%, negative = inhibition) at 10uM value of `c1ccc(-c2cc(N3CCOCC3)nc(-c3ccccc3)n2)cc1` .
Reply: -5.46

Query: If you can, please state the reported hERG current change (%, negative = inhibition) at 10uM value of `Cc1cc(C)nc(N(C#N)CC(=O)N2CCC(C(N)=O)CC2)n1` .
Reply: 20.1

Query: If you can, please state the reported hERG current change (%, negative = inhibition) at 10uM value of `Cc1cccc(NC(=O)/C(=C\c2cccs2)NC(=O)c2ccccc2)c1` .
Reply: -51.7

Query: If you can, please state the reported hERG current change (%, negative = inhibition) at 10uM value of `CC(C)Nc1nc(NNc2nc(Cl)nc(NC(C)(C)C)n2)nc(NC(C)C)n1` .
Reply: 10.1

Query: If you can, please state the reported hERG current change (%, negative = inhibition) at 10uM value of CC(C)c1ccc(S(=O)(=O)N2CCN(C(C)C(=O)NC3CCCC3)CC2)cc1 (centres unmarked) .
Reply: -75.5

Query: If you can, please state the reported hERG current change (%, negative = inhibition) at 10uM value of `O=C(c1ccccc1)c1ccc2c(c1)OCCOCCOCCOCCO2` .
Reply: -65

Query: If you can, please state the reported hERG current change (%, negative = inhibition) at 10uM value of `CC(C)C(=O)Nc1ccc2c(c1)nc(CCN1CCN(c3ccccc3)CC1)n2C` .
Reply: -40.4

Query: If you can, please state the reported hERG current change (%, negative = inhibition) at 10uM value of CCC(C)c1ccc(S(=O)(=O)N2CCN(C(C)C(=O)NC3CCCC3)CC2)cc1 (centres unmarked) .
Reply: -79.1

Query: If you can, please state the reported hERG current change (%, negative = inhibition) at 10uM value of `Cc1cccc(OCC(=O)Nc2ccc3c(C)cc(=O)oc3c2)c1` .
Reply: 1.59

Query: If you can, please state the reported hERG current change (%, negative = inhibition) at 10uM value of `O=C(N/C(=C\c1cccs1)C(=O)N1CCCCCC1)c1ccccc1` .
Reply: -32.3

Query: If you can, please state the reported hERG current change (%, negative = inhibition) at 10uM value of `COc1ccc(CN2C(=O)CN=C2Nc2cc(C)ccc2C)cc1.Cl` .
Reply: 1.79

Query: If you can, please state the reported hERG current change (%, negative = inhibition) at 10uM value of `Cn1c(CCNC(=O)c2ccco2)nc2cc(NS(=O)(=O)c3ccc(Cl)cc3)ccc21` .
Reply: -65.2

Query: If you can, please state the reported hERG current change (%, negative = inhibition) at 10uM value of `Cc1c(CN2CCC(CO)(CCOc3ccccc3)CC2)[nH]c2c(Cl)cccc12` .
Reply: -60.5

Query: If you can, please state the reported hERG current change (%, negative = inhibition) at 10uM value of `Cc1sc(NC(=S)NC(=O)c2ccccc2)c(C#N)c1C` .
Reply: 0.195

Query: If you can, please state the reported hERG current change (%, negative = inhibition) at 10uM value of CCOC(=O)C1(CCc2ccccc2)CCN(C(C)CSC)CC1 (centres unmarked) .
Reply: -66.6

Query: If you can, please state the reported hERG current change (%, negative = inhibition) at 10uM value of `Cc1ccc(S(=O)(=O)NCC(=O)N(CC(=O)NCc2ccco2)Cc2ccc(F)cc2)cc1` .
Reply: 5.19

Query: If you can, please state the reported hERG current change (%, negative = inhibition) at 10uM value of `CCC(=O)Nc1ccc2c(c1)nc(CCN1CCN(c3ccccc3)CC1)n2C` .
Reply: -33.5

Query: If you can, please state the reported hERG current change (%, negative = inhibition) at 10uM value of `CN1CCN(C(=O)/C(=C\c2cccs2)NC(=O)c2ccccc2)CC1` .
Reply: -75.3

Query: If you can, please state the reported hERG current change (%, negative = inhibition) at 10uM value of `Cc1[nH]c2c(Cl)cccc2c(=O)c1CN1CCCC1` .
Reply: -10.6

Query: If you can, please state the reported hERG current change (%, negative = inhibition) at 10uM value of `Cc1ccc(NC(=O)/C(=C\c2cccs2)NC(=O)c2ccccc2)cc1` .
Reply: -3.84

Query: If you can, please state the reported hERG current change (%, negative = inhibition) at 10uM value of `O=C(NNC(=O)C1CC1)Nc1ccc(Cl)cc1` .
Reply: 6.38

Query: If you can, please state the reported hERG current change (%, negative = inhibition) at 10uM value of COc1c(O)ccc2c1-c1c3c(cc4c1C(C2)N(C)CC4)OCO3 (centres unmarked) .
Reply: -28.7

Query: If you can, please state the reported hERG current change (%, negative = inhibition) at 10uM value of `CCn1nc(C(=O)OCC(=O)c2cc(C)n(Cc3cccs3)c2C)c2ccccc2c1=O` .
Reply: 7.14

Data credit: paper PMC4336329
